Answer each item with its documented folding stability dG.
B1: HEEH_KT_rd6_3632 (parent)
chain: DAEELIELVERALKEGREIILLGVRITSEEAGKWFIEWIRRFL

variants of: B1; assay: folding stability dG (cDNA display proteolysis); higher = more stable; conditions: PBS, room temperature

The cases that follow already have their folding stability dG on record.
mutations=A31I obs_value="4.34 kcal/mol"
mutations=L21K obs_value="2.98 kcal/mol"
mutations=K33Q obs_value="3.62 kcal/mol"
mutations=T27S obs_value="3.67 kcal/mol"
mutations=L5R obs_value="2.79 kcal/mol"

# per-item lookup of folding stability dG; items listed below
1. E18M
2. E15A
3. G23V
4. E29R
5. I26R
6. E29M

Resp:
["3.66 kcal/mol", "3.7 kcal/mol", "3.88 kcal/mol", "3.71 kcal/mol", "3.38 kcal/mol", "3.92 kcal/mol"]

Dear colleague, could you send me folding stability dG for each of the items below? Thanks.
1. A2E
2. F42K

Resp:
1: 3.44 kcal/mol; 2: 3.15 kcal/mol

The following variants each have a reported value; give each one's folding stability dG.
1. R17L
2. R11V
3. I36K
4. E15S
5. E15V

Resp:
1: 3.9 kcal/mol; 2: 3.37 kcal/mol; 3: 3.26 kcal/mol; 4: 3.73 kcal/mol; 5: 3.57 kcal/mol
